# stated conditions: buffer; pH 7.4; 200.0 µM
Classify by measured solubility kinetic: true if it is equal to or exceeds 5 µg/mL, false if it is smaller.

Solved cases (5 shown):
1. Cc1ccc(C(=O)O)cc1NC(=O)CSc1nnc(-c2ccccc2F)n1C1CCCCC1
true
2. O=C(/C=C/c1ccco1)OCC(=O)N1CCCCC1
true
3. COC(=O)c1ccc(OC(=O)N2CCOCC2)cc1
true
4. O=C(NC1CC1)C(=O)c1c[nH]c2ccccc12
true
5. CN(C(=O)CSCC(=O)Nc1ccc(Cl)cc1)C1CCCCC1
true

Then this compound:
Determine whether measured solubility kinetic meets or exceeds 5 µg/mL for Cc1cc(=O)[nH]c2ccc(S(=O)(=O)Nc3ccccc3)cc12
false

---

Each record here notes measured solubility kinetic.
# stated conditions: buffer; pH 7.4; 200.0 µM

Name the recorded solubility kinetic of the item CN1CCN(C(=S)NC(=O)c2cccc([N+](=O)[O-])c2)CC1 in your answer.
> 46.3 µg/mL

Look up solubility kinetic of Cc1cc(O)c(Sc2ccc(Cl)cc2)c(=O)[nH]1 and report it.
> 40.2 µg/mL

Assign solubility kinetic to the following record: O=C1/C(=C\c2cccnc2)N2CCC1CC2
> 32.1 µg/mL

Look up solubility kinetic of Cn1c(=O)oc2cc(S(=O)(=O)NCc3ccc(C(=O)O)cc3)ccc21 and report it.
> 54.4 µg/mL

Report solubility kinetic, nothing else, for this compound: O=C(CN1C(=O)c2ccccc2S1(=O)=O)Nc1ncc(Cl)cc1Cl
> 57.9 µg/mL

Output measured solubility kinetic for this item: CCC(C)(CC(=O)Nc1nccs1)c1ccccc1 (configuration not stated)
> 41.2 µg/mL

Report solubility kinetic for OCC1CCCCN1C(=S)Nc1cccc(Cl)c1 (configuration not stated)
> 42.7 µg/mL

---

# stated conditions: buffer; pH 7.4; 200.0 µM
reported property: solubility kinetic

Worked examples, 2 molecules total:
1) O=C(COC(=O)c1cccnc1Cl)NCCc1ccc(F)cc1
> 50.5 µg/mL
2) CC1CC(C)CN(C(=O)COc2cccnc2[N+](=O)[O-])C1 (configuration not stated)
> 44 µg/mL

Identify the reported solubility kinetic for the following entry. Cc1ccc(S(=O)(=O)NC(Cc2ccccc2)C(=O)O)cc1C (configuration not stated)
> 50 µg/mL

Output measured solubility kinetic for this item: CCNC(=S)NNC(=O)CC(C)C
> 30.5 µg/mL

Answer with reported solubility kinetic of CC(=O)Nc1ccc(NC(=O)C(C)OC(=O)[C@@H]2CCCN2C(=O)c2cccs2)cc1 (some centres not stated)
> 64.4 µg/mL

---

# stated conditions: buffer; pH 7.4; 200.0 µM
Classification field: enter Met for solubility kinetic values not below 40 µg/mL, Not met for values below it.

Known results for compounds:
1) CCOC(=O)CCCCCN1C(=O)c2cccc3cccc(c23)C1=O
Not met
2) C/C(=N\O)C(C)(C)Nc1cccc(Br)c1
Not met
3) CCC(=O)Nc1nc2ccccc2n1Cc1ccccc1Cl
Not met
4) CC(C)CC(=O)Nc1sc2c(c1C(=O)O)CCCCC2
Met
5) O=C(COC(=O)CCC(=O)c1ccc(F)cc1)NCCc1ccccc1
Met

Could you please find out whether O=C(NCC(c1cccs1)N1CCOCC1)c1cccnc1 (stereo not given) has solubility kinetic that meets 40 µg/mL or exceeds it?
Met

Is reported solubility kinetic greater than or equal to 40 µg/mL here: O=C(NCCc1ccc(Cl)cc1)C1(c2ccccc2)CC1
Not met

Decide: solubility kinetic of CC(C)C(=O)Nc1ccc(N2CCCC2)c(Cl)c1 >= 40 µg/mL?
Not met
